Tested on: human colon cancer LoVo cell
Experiment: MTT proliferation assay, LoVo
Type: cell-based
Settings: Homo sapiens, LoVo, 96 h, MTT, 4 days; read-out: IC50 (nM), proliferation of LoVo cell
Catalogue of log10 of IC50 values
Would you kindly interpret these values as log10 of IC50 expressed in nM?

Check out these entries, answers already filled in.
{"compound smiles": "Cc1nc(-c2ccn[nH]2)n2nc(N3CCOC[C@H]3C)cc(-c3ccncc3F)c12", "tested on": "human colon cancer LoVo cell", "log10 of IC50": 1.62}
{"compound smiles": "CC(C)c1nc(-c2ccn[nH]2)n2nc(N3CCOC[C@H]3C)cc(-c3ccnn3C)c12", "tested on": "human colon cancer LoVo cell", "log10 of IC50": 1.44}
{"compound smiles": "Cc1nc(-c2ccn[nH]2)n2nc(N3CCOC[C@H]3C)cc(-c3ccccc3F)c12", "tested on": "human colon cancer LoVo cell", "log10 of IC50": 1.42}
{"compound smiles": "Cc1nc(-c2ccn[nH]2)n2nc(N3CCOC[C@H]3C)cc(-c3ccn(C(F)F)n3)c12", "tested on": "human colon cancer LoVo cell", "log10 of IC50": 2.06}
{"compound smiles": "CCn1nccc1-c1cc(N2CCOC[C@H]2C)nn2c(-c3ccn[nH]3)nc(C)c12", "tested on": "human colon cancer LoVo cell", "log10 of IC50": 1.64}
{"compound smiles": "Cc1ncccc1-c1cc(N2CCOC[C@H]2C)nn2c(-c3ccn[nH]3)nc(C)c12", "tested on": "human colon cancer LoVo cell", "log10 of IC50": 1.43}

Given the entry C[C@@H]1COCCN1c1cc(-c2ccnn2C)c2c(Cl)nc(-c3ccn[nH]3)n2n1 , report its measured log10 of IC50.
1.35

Dear colleague, I am looking for the recorded log10 of IC50 of the following molecule: Cc1nc(-c2ccn[nH]2)n2nc(N3CCOC[C@H]3C)cc(-c3cnn(C)c3C)c12
1.29

Return reported log10 of IC50; argument: Cc1nc(-c2ccn[nH]2)n2nc(N3CCOC[C@H]3C)cc(-c3cccnc3C(F)(F)F)c12
1.41

Entry under review: Cc1cc(-c2nc(C)c3c(-c4ccnn4C)cc(N4CCOC[C@H]4C)nn23)[nH]n1 . Reported log10 of IC50?
1.25

If you can, please state the reported log10 of IC50 value of Cc1nc(-c2ccn[nH]2)n2nc(N3CCOC[C@H]3C)cc(C3CCOCC3)c12 .
1.39

Fill blank: measured log10 of IC50 of the molecule Cc1nc(-c2ccn[nH]2)n2nc(N3CCOC[C@H]3C)cc(-c3cccnc3F)c12 is ____.
1.25

Name the recorded log10 of IC50 for Cc1nc(-c2ccn[nH]2)n2nc(N3CCOC[C@H]3C)cc(-c3cccc(C#N)c3)c12 .
1.64

====

System: human colon cancer LoVo cell
Assay: MTT proliferation assay, LoVo
Assay type: cell-based
Conditions: MTT, 4 days; read-out: IC50 (nM), proliferation of LoVo cell
recorded metric: IC50 (nM)
Give the quantity in nM, number only.

What value of measured IC50 is listed for Cc1nc(-c2ccn[nH]2)n2nc(N3CCOC[C@H]3C)cc(-c3ccncc3F)c12 ?
47.2

====

Test: Pharmacokinetics following single oral administration to mice
Type: in vivo
Conditions: mouse, CD-1 (ICR) mice, gavage 10 mg/kg, 0.5% methylcellulose/water suspension, plasma
Criterion: AUC(0-inf) strictly less than 50000 ng·h/mL. Met: Met. Not met: Not met.

Please let me know if Cc1nc(-c2ccn[nH]2)n2nc(N3CCOC[C@H]3C)cc(-c3ccccc3F)c12 [Example 14] shows AUC(0-inf) below 50000 ng·h/mL.
Not met

A record lists Cc1ncccc1-c1cc(N2CCOC[C@H]2C)nn2c(-c3ccn[nH]3)nc(C)c12 [Example 4] . Is its AUC(0-inf) below 50000 ng·h/mL?
Met

Lab note: confirm whether the reported AUC(0-inf) for this compound is below 50000 ng·h/mL, equality not counting. compound: C=C(C)c1nc(-c2ccn[nH]2)n2nc(N3CCOC[C@H]3C)cc(-c3ccnn3C)c12 [Example 25]
Not met

Criterion: AUC(0-inf) strictly below 50000 ng·h/mL. Is it met by Cc1nc(-c2ccn[nH]2)n2nc(N3CCOC[C@H]3C)cc(-c3cccnc3C(F)(F)F)c12 [Example 5] ?
Met

====

Tested on: human colon cancer LoVo cell
Assay: MTT proliferation assay, LoVo
Format: cell-based
Settings: Homo sapiens, LoVo, 96 h, MTT, 4 days; read-out: IC50 (nM), proliferation of LoVo cell
recorded metric: IC50 (nM)
Your answer is read as nM, so omit the unit and give the number.

{"compound smiles": "C=C(C)c1nc(-c2ccn[nH]2)n2nc(N3CCOC[C@H]3C)cc(-c3ccnn3C)c12", "tested on": "human colon cancer LoVo cell", "unit annotation": "nM", "IC50": 10.7}
{"compound smiles": "Cc1ccccc1-c1cc(N2CCOC[C@H]2C)nn2c(-c3ccn[nH]3)nc(C)c12", "tested on": "human colon cancer LoVo cell", "unit annotation": "nM", "IC50": 49.5}
{"compound smiles": "C[C@@H]1COCCN1c1nc(-c2ccnn2C)c2cnc(-c3cc[nH]n3)n2n1", "tested on": "human colon cancer LoVo cell", "unit annotation": "nM", "IC50": 110}

Which IC50 is reported for this compound? Cc1cc(S(C)(=O)=O)ccc1-c1cc(N2CCOC[C@H]2C)nn2c(-c3ccn[nH]3)nc(C)c12
19.5

Consider the compound shown here: Cc1nn(C)cc1-c1cc(N2CCOC[C@H]2C)nn2c(-c3ccn[nH]3)nc(C)c12 What is its recorded IC50?
46.5

For the compound shown here, C=Cc1nc(-c2ccn[nH]2)n2nc(N3CCOC[C@H]3C)cc(-c3ccnn3C)c12 , give the reported IC50.
39.1

Report IC50 for Cc1nc(-c2ccn[nH]2)n2nc(N3CCOC[C@H]3C)cc(-c3ccnn3C(C)C)c12 please.
39.3

Reference for the values: patent US20240059695A1
